# test-name: TOX21_p53_BLA_p3_viability: Viability Assessment in the Tox21 HCT-116 p53 Agonism Beta-lactamase Assay, Phase 3 (AID 2283593);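 also: cells exposed to compound for 16 h before reading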
Records with an inconclusive call do not appear. Activity calls are given as the source filed them. The calls were made as follows: active = hit-call score of the fitted dose curve at least 0.9, where 1 is the maximum; inconclusive = response in the unintended direction; inactive = score below 0.9.
Classes used: Y (active), N (inactive)

compound | label-class
CCC1(c2ccccc2)C(=O)NC(=O)N(C(=O)c2ccccc2)C1=O (stereo unspecified) | N
CCCCCCCCCCOC(=O)c1ccccc1C(=O)OCCCCCCCCCC | N
COc1cccc2c1cc([N+](=O)[O-])c1c(C(=O)O)cc3c(c12)OCO3 | Y
Oc1ccc2c3c1O[C@H]1[C@@H](O)C=C[C@H]4[C@H](C2)NCC[C@@]341 | N
Cc1nnc2n1-c1ccc(Cl)cc1C(c1ccccc1Cl)=NC2 | N
CCN(CC)CCOC(=O)C(O)(c1ccccc1)c1ccccc1 | N
O=[N+]([O-])O[C@H]1CO[C@H]2[C@@H]1OC[C@H]2O[N+](=O)[O-] | N
[O]=[Cd] | N
C=CCCC#N | N
Clc1cc(Cl)c(-c2cc(Cl)c(Cl)cc2Cl)cc1Cl | N
ClC(Cl)(Cl)Br | N
CCC1COC(Cn2cncn2)(c2ccc(Cl)cc2Cl)O1 (stereo unspecified) | N
O=c1[nH]cc(N(CCCl)CCCl)c(=O)[nH]1 | N
CC(C)(C)NCC(O)c1cc(Cl)c(N)c(C(F)(F)F)c1 (stereo unspecified) | N
CC(C)NC(C)C | N
COC(C)(C)CCCC(C)C/C=C/C(C)=C/C(=O)OC(C)C (stereo unspecified) | N
CN(C)C(=O)C(c1ccccc1)c1ccccc1 | N
c1ccoc1 | N
O=C1CC(=O)NC(=O)N1 | N
CCCC[P+](CC)(CCCC)CCCC (tested in a mixture with another compound) | N
CCOC(=O)c1cn2nc(OP(=S)(OCC)OCC)cc2nc1C | N
COC(=O)[C@@H](N)CCCN/C(N)=N/[N+](=O)[O-] | N
O=[N+]([O-])c1ccc(Oc2ccc(C(F)(F)F)cc2[N+](=O)[O-])cc1 | N
CCOP(=O)(OCC)SCCSCC (tested in a mixture with another compound) | N
CC1CN1 (stereo unspecified) | N
CNC(C)Cc1ccccc1 (stereo unspecified) | N

====

# test-name: ATG_DR4_LXR_CIS: Attagene CIS-FACTORIAL HepG2 Assay for human Liver X Receptor (LXR), DR4 submotif (AID 2282929)
# condition-label: HepG2 Attagene DR4 cis-reporter, mRNA transcription; actives raise or lower the signal
Activity calls are given as the source filed them. How the source made its calls: active means hit-call score of the fitted dose curve at least 0.9, where 1 is the maximum; inactive means score below 0.9.
Classes used: active, inactive

compound | label-class
O=[N+]([O-])C=Cc1ccccc1 | active
CCOC(=O)COc1ccc(Cl)cc1Cl | inactive
C=Cc1cccc(CCl)c1 | inactive
O=C(CCN1CC1)OCC(CO)(COC(=O)CCN1CC1)COC(=O)CCN1CC1 | inactive
COc1ccc(CO)cc1 | inactive
O=[N+]([O-])c1cc(C(F)(F)F)c(Cl)c([N+](=O)[O-])c1Cl | active
CCCCCCCCCCCC#N | active
O=C(O)c1cc[c]([Hg][Cl])cc1 | inactive
ClC1=C(Cl)[C@]2(Cl)[C@@H]3[C@@H](Cl)[C@H](Cl)C[C@@H]3[C@@]1(Cl)C2(Cl)Cl | inactive
CCC(C)(C)O | inactive
CC(Cc1ccc(C(C)(C)C)cc1)CN1C[C@@H](C)O[C@@H](C)C1 (stereo partly drawn) | inactive
CN1C(=O)CCS(=O)(=O)C1c1ccc(Cl)cc1 (stereo not drawn) | inactive
CC1OC(C)OC(C)O1 (stereo not drawn) | inactive

====

# test-name: ATG_TCF_b_cat_CIS: Attagene CIS-FACTORIAL HepG2 Assay for human T-Cell-Factor with beta-catenin (TCF/b-cat) (AID 2282965)
# condition-label: HepG2 TCF/beta-catenin cis-reporter transcription, actives raise or lower the signal
The source made the active and inactive calls. The calls were made as follows: active = hit-call score of the fitted dose curve at least 0.9, where 1 is the maximum; inactive = score below 0.9.
Classes used: active, inactive

molecule | label-class
O=C(NC(=O)c1c(F)cccc1F)Nc1ccc(Oc2ccc(C(F)(F)F)cc2Cl)cc1F | inactive
C=Cc1cccc(CCl)c1 | inactive
C=CC(=O)OCC(CC)CCCC (configuration not stated) | inactive
O=C(NCNC(=O)NC1C(=O)NC(=O)N1CO)NC1C(=O)NC(=O)N1CO (configuration not stated) | inactive
O=C1Nc2ccc(Cl)cc2C(c2ccccc2)=NC1O (configuration not stated) | active
C=CC(=O)OCCCCOC(=O)C=C | active
Oc1cc(Cl)ccc1Cl | inactive

====

# Read-out: Transforming growth factor beta 1 (TGFb1), TGFB1 (gene 7040)
# test-name: BSK_KF3CT_TGFb1: BioMAP Diversity Plus: KF3CT Assay for Transforming growth factor beta 1 (TGFb1) Biomarker Activity (AID 2283072)
# condition-label: primary human keratinocytes with fibroblasts; actives raise or lower the signal
The source made the active and inactive calls. Rule for the calls: active = hit-call score of the fitted dose curve at least 0.9, where 1 is the maximum; inactive = score below 0.9.
Classes used: active, inactive

chem-smiles | label-class
O=[N+]([O-])C=Cc1ccccc1 | active
CC(C)(C)C(=O)CCl | inactive
c1ccc(Nc2ccc3ccccc3c2)cc1 | active
COCC(=O)N(c1c(C)cccc1C)N1CCOC1=O | inactive

====

# test-name: IUF_NPC2a_radial_glia_migration_72hr: Leibniz Research Institute for Environmental Medicine (IUF) 72-hour Neural Progenitor Cell Migration Assay for Radial Glia Migration (NPC2a) (AID 2284299)
Calls of active or inactive are those of the source. How the source made its calls: active means hit-call score of the fitted dose curve at least 0.9, where 1 is the maximum; inactive means score below 0.9.
Classes used: True = active, False = inactive

compound | label-class
CCOP(=O)(Oc1cnc(C(C)(C)C)nc1)OC(C)C (configuration not stated) | False
CCOP(=S)(OCC)SCS(=O)C(C)(C)C (configuration not stated) | False
O=[As]O | False
Brc1ccc(Oc2ccc(Br)cc2Br)c(Br)c1 | False
CCOP(=O)(OCC)OC(Cl)C(Cl)(Cl)Cl (configuration not stated) | False
[Cd+2].[Cl-].[Cl-] | True
CNC(=N[N+](=O)[O-])NCC1CCOC1 (configuration not stated) | False

====

# subject-of-test: PGR (gene 5241)
# test-name: TOX21_PR_BLA_Followup_Agonist_ratio: Tox21 HEK293 Progesterone Receptor (PR) Agonism Beta-lactamase Follow-Up Assay, Ratio (AID 2283933)
# Experimental: TOX21_PR_BLA_Followup is a secondary assay for specificity for the TOX21_PR_BLA_Agonist assay. To differentiate true PR agonists from cytotoxic substances, this follow up assay is multiplexed with a cell viability assay. The compounds were also tested for auto fluorescence that may interfere with the biological target readout resulting in potential false positives and/or negatives. […]
Inconclusive results are not listed. Calls of active or inactive are those of the source. The calls were made as follows: active = hit-call score of the fitted dose curve at least 0.9, where 1 is the maximum; inconclusive = response in the unintended direction; inactive = score below 0.9.
Classes used: active, inactive

compound | label-class
C[C@]12CC[C@H]3[C@@H](CC[C@@]45O[C@@H]4C(O)=C(C#N)C[C@]35C)[C@@H]1CC[C@@H]2O | inactive
CCOC(=O)C1(c2ccccc2)CCN(CCC(C#N)(c2ccccc2)c2ccccc2)CC1 | inactive
CCOP(=S)(OCC)Oc1cc(Cl)c(Br)cc1Cl | inactive
O=C(CBr)Nc1ccc(Cl)cc1C(=O)c1ccccc1F | inactive
C[C@]12CC[C@H]3[C@@H](CCC4=CC(=O)CC[C@@H]43)[C@@H]1CC[C@@H]2OC(=O)CCc1ccco1 | active
COc1ccc2c(c1OC)CN1CCc3cc4c(cc3C1C2)OCO4 (configuration not stated) | inactive
C#C[C@]1(O)CC[C@H]2[C@@H]3CCC4=CC(=O)CCC4=C3C=C[C@@]21CC | active

====

# test-name: ATG_NRF2_ARE_CIS: Attagene CIS-FACTORIAL HepG2 Assay for human Nuclear Factor Erythroid 2 Related Factor 2 (NFR2) response to Antioxidant Response Elements (ARE) (AID 2282992)
# condition-label: HepG2 Attagene ARE/NRF2 reporter, transcription factor activity; actives raise or lower the signal
Calls of active or inactive are those of the source. Rule for the calls: active = hit-call score of the fitted dose curve at least 0.9, where 1 is the maximum; inactive = score below 0.9.
Classes used: Yes = active, No = inactive

molecule | label-class
CCCCCCC1CCOC1=O (configuration not stated) | No
C=CCc1ccc(OC(=O)Cc2ccccc2)c(OC)c1 | Yes
CCc1cccc(C)c1N(C(=O)CCl)[C@@H](C)COC | Yes
CC(C)CCCCCCCOC(=O)c1ccccc1C(=O)OCCCCCCCC(C)C | No
CN(C)N | No
CCC1CCC(=O)O1 (configuration not stated) | No
O=[N+]([O-])O | No

====

# test-name: CCTE_Shafer_MEA_acute_LDH: CCTE's Lactate Dehydrogenase Assay for Cytotoxicity in the Neural Acute Assay, Shafer Lab (AID 2284086);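 also: active means LDH release rises above DMSO vehicle level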
Inconclusive results are not listed. Activity calls are given as the source filed them. How the source made its calls: active means hit-call score of the fitted dose curve at least 0.9, where 1 is the maximum; inconclusive means response in the unintended direction; inactive means score below 0.9.

molecule | outcome
O=[N+]([O-])O | inactive
[Cd+2].[Cl-].[Cl-] | inactive
Cc1ccc(OP(=O)(Oc2ccc(C)cc2)Oc2ccc(C)cc2)cc1 (tested in a mixture with another compound) | inactive

====

# subject-of-test: human Matrix Metalloproteinase-1 (MMP1), MMP1 (gene 4312)
# test-name: NVS_ENZ_hMMP1: NovaScreen (NVS) Enzymatic Assay for human Matrix Metalloproteinase-1 (MMP1) (AID 2283181)
# Method: NVS_ENZ_hMMP1 is a biochemical, single-readout assay that uses extracted gene-proteins in a cell-free assay. Measurements were taken 1 hour after chemical dosing in a 96-well plate.NVS_ENZ_hMMP1 is one of one assay component(s) measured or calculated from the NVS_ENZ_hMMP1 assay. […] This assay endpoint, NVS_ENZ_hMMP1, was analyzed in the positive analysis fitting direction relative to DMSO as the negative control and baseline of activity. […]
Inconclusive results are not listed. Active and inactive are the calls of the source. How the source made its calls: active means hit-call score of the fitted dose curve at least 0.9, where 1 is the maximum; inconclusive means response in the unintended direction; inactive means score below 0.9.
Classes used: active, inactive

chem-smiles | label-class
CCCCCC(=O)O | inactive
O=[N+]([O-])c1ccc(O)cc1 | active
CC(=O)NC1(c2cccc(F)c2)CCN(CC[C@@]2(c3ccc(Cl)c(Cl)c3)CN(c3ccccc3)C(=O)CO2)CC1 | inactive
NC(=O)c1nc(-c2cccc(-c3cc(F)ccc3OCC(F)(F)C(F)(F)F)c2)n[nH]1 | active
CCOC(=O)O[C@H](C)OC(=O)c1ccc2c(c1)cc(C(=O)NC1CCN(C(C)C)CC1)n2Cc1cc(-c2ccc(Cl)s2)on1 | inactive
NCCO | inactive
COc1ccc2cc(S(=O)(=O)N[C@H](CC(=O)N[C@H](Cc3ccc(CN4[C@H](C)CCC[C@@H]4C)cc3)C(=O)N(C)C(C)C)c3ccc4c(c3)OCO4)ccc2c1 | inactive
CCCCCCCCCCCCCCOS(=O)(=O)O | inactive
CCCCc1nc2cccnc2n1Cc1ccc(-c2ccccc2-c2nnn[nH]2)cc1 | active
FC(F)(F)C(F)(F)C(F)(F)C(F)(F)C(F)(F)C(F)(F)CCI | inactive
